# Test system: HCC-44 (Lung Adenocarcinoma)
# assay-name: combination Emax (second highest fraction inhibited in the dose matrix, 72 h); higher = more inhibition; extreme values may be limits of the assay
Give Satisfied when the value for combination Emax is at least 0.8. Give Not satisfied when it is less.

Qu. API: above_or_equal(metric=combination Emax, cutoff=0.8) for item C=CCn1c(=O)c2cnc(Nc3ccc(N4CCN(C)CC4)cc3)nc2n1-c1cccc(C(C)(C)O)n1 [AZD1775] + CCc1c2c(nc3ccc(O)cc13)-c1cc3c(c(=O)n1C2)COC(=O)[C@]3(O)CC [SN-38] (first compound max 1 µM, partner max 0.3 µM)
Ans. Satisfied

Qu. Decide: is the reported value of combination Emax for NC1(C(=O)N[C@@H](CCO)c2ccc(Cl)cc2)CCN(c2ncnc3[nH]ccc23)CC1 [Capivasertib] + CCN(CCO)CCCOc1ccc2c(Nc3cc(CC(=O)Nc4cccc(F)c4)[nH]n3)ncnc2c1 [AZD2811] (first compound max 10 µM, 7x7, partner max 1 µM) equal to or greater than 0.8?
Ans. Not satisfied

Qu. Check if combination Emax >= 0.8 (inclusive). Item: C[C@@H]1COCCN1c1cc(C2([S@](C)(=N)=O)CC2)nc(-c2ccnc3[nH]ccc23)n1 [AZD6738] + Nc1ccn([C@@H]2O[C@H](CO)[C@@H](O)C2(F)F)c(=O)n1 [Gemcitabine] (first compound max 10 µM, 7x7, partner max 0.3 µM)
Ans. Satisfied

Qu. Please indicate if the recorded combination Emax for Cc1c2c(nn1C)CSCc1cc(n(C)n1)CSc1cc(c3ccccc3c1)OCCCc1c(C(=O)O)n(C)c3c-2c(Cl)ccc13 [AZD5991] + Nc1ccn([C@@H]2O[C@H](CO)[C@@H](O)C2(F)F)c(=O)n1 [Gemcitabine] (first compound max 1 µM, 7x7, partner max 0.3 µM) meets or exceeds 0.8.
Ans. Not satisfied

Qu. Evaluate C[C@@H]1COCCN1c1cc(C2([S@](C)(=N)=O)CC2)nc(-c2ccnc3[nH]ccc23)n1 [AZD6738] + C1CC(C1)(C(=O)[O-])C(=O)[O-].N.N.[Pt+2] [Carboplatin] (first compound max 10 µM, 7x7, partner max 10 µM) : combination Emax at minimum 0.8?
Ans. Not satisfied

Qu. Could you tell me if the measured combination Emax of C[C@@H](Oc1cc(-c2cnn(C3CCNCC3)c2)cnc1N)c1c(Cl)ccc(F)c1Cl [Crizotinib] + CC1=C(C(=CC=C1)Cl)NC(=O)C2=CN=C(S2)NC3=CC(=NC(=N3)C)N4CCN(CC4)CCO [Dasatinib] (first compound max 10 µM, 7x7, partner max 2 µM) reaches 0.8 or more?
Ans. Satisfied

Qu. Exam item: decide whether the reported combination Emax for CS(=O)(=O)CCNCc1ccc(-c2ccc3ncnc(Nc4ccc(OCc5cccc(F)c5)c(Cl)c4)c3c2)o1 [Lapatinib] + NC1(c2ccc(-c3nc4ccn5c(=O)[nH]nc5c4cc3-c3ccccc3)cc2)CCC1 [MK-2206] (first compound max 10 µM, 7x7, partner max 10 µM) is at least 0.8.
Ans. Satisfied

---

# Tested on: NCI-H1623 (Lung Adenocarcinoma);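 also: after 72 h of two-drug dosing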
# assay-name: Bliss excess, mean over the matrix (fraction); higher = more synergy
Would you mind telling me the reported Bliss excess of each entry?
Reply briefly: the number, and no unit.

Qu. Assign Bliss excess to the following record: Cc1c2c(nn1C)CSCc1cc(n(C)n1)CSc1cc(c3ccccc3c1)OCCCc1c(C(=O)O)n(C)c3c-2c(Cl)ccc13 [AZD5991] + CN(C)CCCOc1ccc(-c2ccc3ncc4c(c3c2)n(C2CCOCC2)c(=O)n4C)cn1 [AZD0156] (first compound max 1 µM, 7x7, partner max 1 µM)
Ans. -0.015

Qu. // Input: Cc1cc2ncnn2cc1Nc1ncc2c(n1)n(C1CCOCC1)c(=O)n2C [AZD7648] + C[C@@H]1COCCN1C2=NC(=NC(=C2)C3(CC3)[S@](=N)(=O)C)C4=C5C=CNC5=NC=C4 [AZD6738] (first compound max 10 µM, 7x7, partner max 10 µM) . Output its Bliss excess only.
Ans. 0.0359

Qu. Name the recorded Bliss excess of the molecule listed here: C[C@@H](c1ccc2nccn2c1)n1nnc2ncc(-c3cnn(C)c3)nc21 [Savolitinib] + Cc1c2c(nn1C)CSCc1cc(n(C)n1)CSc1cc(c3ccccc3c1)OCCCc1c(C(=O)O)n(C)c3c-2c(Cl)ccc13 [AZD5991] (first compound max 1 µM, 7x7, partner max 1 µM)
Ans. -0.0195

Qu. Fill in Bliss excess for record Cc1c2c(nn1C)CSCc1cc(n(C)n1)CSc1cc(c3ccccc3c1)OCCCc1c(C(=O)O)n(C)c3c-2c(Cl)ccc13 [AZD5991] + C=CCn1c(=O)c2cnc(Nc3ccc(N4CCN(C)CC4)cc3)nc2n1-c1cccc(C(C)(C)O)n1 [AZD1775] (first compound max 1 µM, partner max 1 µM)
Ans. 0.0167
